assay: pharmacokinetics in mouse (Table 3); assay type: in vivo; settings: urine; mouse, 20 mg/kg; read-out: Urinary Recovery
Structures can show the parent of a compound that is named as a salt.
attributeMeasured: dose excreted (%)

- compound: "CO/N=C(\\C(=O)N[C@@H]1C(=O)N2C(C(=O)O)=C(CSc3nnnn3CCNS(=O)(=O)O)CS[C@H]12)c1csc(N)n1 [Compound A, disodium salt]"
  reportedValue: 24
- compound: "Cn1nnnc1SCC1=C(C(=O)O)N2C(=O)[C@@H](NC(=O)[C@H](O)c3ccccc3)[C@H]2SC1"
  reportedValue: 45
- compound: "CO/N=C(\\C(=O)N[C@@H]1C(=O)N2C(C(=O)O)=C(COC(C)=O)CS[C@H]12)c1csc(N)n1"
  reportedValue: 13
